target: PDZD7 PDZ1 (81-167) (Mus musculus); construct: (Uniprot entry E9Q9W7-1); PDZ1 (81-167); GST (followed by TEV site) (N, cleaved yes); made in house; host or cells: E. coli BL21 DE3; assay: NMR titration of PDZ1 with ADGRV1 ligands; format: binding, murine; details: NMR titration (1H-15N HSQC CSP), Tris HCl pH 7.5 (50 mM), 25°C; SD of Kd over at least ten shifting peaks
Sequence (E9Q9W7 81-167): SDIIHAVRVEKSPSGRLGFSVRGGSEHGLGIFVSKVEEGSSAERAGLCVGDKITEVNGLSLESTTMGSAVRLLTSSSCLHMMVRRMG
Where no end group is shown, it is not given here.
quantity: pKd
Bear in mind: pKd is minus log10 of a mol/L concentration; give just that figure.

Reported pKd for PDZD7 PDZ1 (81-167) (Mus musculus), given VELRRIPIADTHL [ADGRV1pbm] ?
2.88
